Just for reference, patent EP2913333A1 is where these values come from.

# System Name: E. feacium DltA (Enterococcus faecium, UniProt Q3XZT7)
# Sequence (Q3XZT7 1-504): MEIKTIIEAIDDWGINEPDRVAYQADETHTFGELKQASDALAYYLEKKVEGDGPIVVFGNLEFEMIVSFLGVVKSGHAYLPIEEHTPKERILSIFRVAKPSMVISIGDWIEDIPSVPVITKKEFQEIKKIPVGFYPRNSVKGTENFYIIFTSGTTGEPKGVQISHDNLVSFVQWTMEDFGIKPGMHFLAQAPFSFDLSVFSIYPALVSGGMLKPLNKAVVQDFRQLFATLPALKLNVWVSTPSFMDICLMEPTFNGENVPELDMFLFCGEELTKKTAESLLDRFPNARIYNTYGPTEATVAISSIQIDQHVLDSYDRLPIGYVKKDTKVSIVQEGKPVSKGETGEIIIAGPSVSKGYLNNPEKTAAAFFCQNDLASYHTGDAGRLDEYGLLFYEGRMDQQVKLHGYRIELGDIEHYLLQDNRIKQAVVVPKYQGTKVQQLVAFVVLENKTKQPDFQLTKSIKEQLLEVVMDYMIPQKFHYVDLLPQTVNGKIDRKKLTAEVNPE
# Run Description: in vitro DltA activity assay (luminescence, IC50 determination)
# Assay type: biochemical
# Condition Info: recombinant DltA, 30min preincubation at room temperature, 0.5mM D-Alanine, 0.5-5µM ATP; read-out: E. feacium DltA IC50
Where a name gives a salt, the structure may show the parent alone.
Property Label: pIC50
Answers are plain numbers, as −log10 of the molar value.

Worked set:
O=c1[nH]cnc2c(-c3ccc4c(c3)ncn4C3CCCCC3)sc(N3CC4CNCC4C3)c12 (centres unmarked) [Example 25, hydrochloride] : 7.06
O=c1[nH]cnc2c(-c3ccc4c(c3)ncn4[C@@H]3CCCC[C@H]3F)sc(N3CC[C@H](CO)C3)c12 [Example 47] : 6.96
CN(C)CCCn1cc(-c2ccc3c(c2)ncn3C2CCCCC2)c2nc[nH]c(=O)c21 [Example 80] : 6.21
O=c1[nH]cnc2c(-c3ccc4c(c3)ncn4C3CCCCC3)cn(C3CCC(O)C3)c12 (racemic) [Example 71A] : 6.05
O=c1[nH]cnc2c(-c3ccc4c(c3)ncn4C3CCCCC3)cn(C3CCNCC3)c12 [Example 73] : 6.55
O=c1[nH]cnc2c(-c3ccc4c(c3)ncn4C3CCCCC3)sc(N3CCC(CCO)C3)c12 (centres unmarked) [Example 11] : 6.72
O=c1[nH]cnc2c1c(C1=CCNCC1)cn2-c1ccc2c(c1)ncn2C1CCCCC1 [Example 52, hydrochloride] : 6.92

## Task Give measured pIC50 for O=c1[nH]cnc2c1c(CCCO)cn2-c1ccc2c(c1)ncn2C1CCCCC1 [Example 51] (E. feacium DltA (Enterococcus faecium, UniProt Q3XZT7)).
## Result 5.92

* * *

I'd be grateful if you could share measured pIC50 for these entries.
# System Name: S. aureus DltA (Staphylococcus aureus, UniProt Q2FZW6)
# Sequence (Q2FZW6 1-485): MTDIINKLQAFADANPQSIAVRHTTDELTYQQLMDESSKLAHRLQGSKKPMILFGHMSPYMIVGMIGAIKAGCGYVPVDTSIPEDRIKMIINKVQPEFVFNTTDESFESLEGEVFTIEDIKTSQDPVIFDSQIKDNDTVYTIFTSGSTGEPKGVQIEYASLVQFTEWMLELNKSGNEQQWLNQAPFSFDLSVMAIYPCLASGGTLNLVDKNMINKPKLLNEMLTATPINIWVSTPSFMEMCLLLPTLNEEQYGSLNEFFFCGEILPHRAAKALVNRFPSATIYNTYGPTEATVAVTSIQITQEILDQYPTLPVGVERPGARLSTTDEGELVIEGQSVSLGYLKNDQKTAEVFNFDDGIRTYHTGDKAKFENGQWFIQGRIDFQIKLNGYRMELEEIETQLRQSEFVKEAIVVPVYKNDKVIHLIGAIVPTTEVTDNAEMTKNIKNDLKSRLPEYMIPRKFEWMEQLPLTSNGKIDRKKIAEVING
Counter-ions that a name gives are not always drawn.
Give bare numbers, as −log10 of the molar value.

Worked set:
O=c1[nH]cnc2c1c(C1CCC(CO)C1)cn2-c1ccc2c(c1)ncn2C1CCCCC1 (stereo not drawn) [Example 58] : 6.09
O=c1[nH]cnc2c1c(C1=CCNCC1)cn2-c1ccc2c(c1)ncn2C1CCCCC1 [Example 52, hydrochloride] : 6.82
O=c1[nH]cnc2c(-c3ccc4c(c3)ncn4C3CCCCC3)sc(C3=CCNCC3)c12 [Example 37, hydrochloride] : 7.17
O=c1[nH]cnc2c(-c3ccc4c(c3)ncn4[C@@H]3CCCC[C@H]3F)sc(N3CC[C@H](CO)C3)c12 [Example 47] : 7.11
CC(C)N1CCC(n2cc(-c3ccc4c(c3)ncn4C3CCCCC3)c3nc[nH]c(=O)c32)CC1 [Example 82] : 7.25
CN(C)CCCn1cc(-c2ccc3c(c2)ncn3C2CCCCC2)c2nc[nH]c(=O)c21 [Example 80] : 6.57
O=c1[nH]cnc2c(-c3ccc4c(c3)ncn4C3CCCOC3)sc(N3CC[C@H](CO)C3)c12 (stereo partly drawn) [Example 49] : 7.01
CN1CC=C(c2cn(-c3ccc4c(c3)ncn4C3CCCCC3)c3nc[nH]c(=O)c23)CC1 [Example 53] : 6.82
O=c1[nH]cnc2c(-c3ccc4c(c3)ncn4C3CCCCC3)cn(CCCO)c12 [Example 67] : 6.82
COCCn1cnc2cc(-c3sc(N4CC[C@H](CO)C4)c4c(=O)[nH]cnc34)ccc21 [Example 46] : 6.82

Give pIC50 for all compounds that follow.
1. O=c1[nH]cnc2c(-c3ccc4c(c3)ncn4C3CCCCC3)sc(N3CC[C@H](CO)C3)c12 [Example 7]
2. CN1CC=C(c2sc(-c3ccc4c(c3)ncn4C3CCCCC3)c3nc[nH]c(=O)c23)CC1 [Example 38, hydrochloride]
3. O=c1[nH]cnc2c(-c3ccc4c(c3)ncn4C3CCCCC3)sc(N3C[C@@H]4[C@@H](CO)[C@@H]4C3)c12 [Example 30]

## Result
7.15
6.89
6.66

Give pIC50 for all compounds that follow.
1. O=c1[nH]cnc2c(-c3ccc4c(c3)ncn4C3CCCCC3)cn(C3CCCC(O)C3)c12 (racemic) [Example 70A]
2. CCn1cnc2cc(-c3sc(N4CC[C@H](CO)C4)c4c(=O)[nH]cnc34)ccc21 [Example 45]

## Result
6.18
6.89

Give pIC50 for all compounds that follow.
1. O=c1[nH]cnc2c(-c3ccc4c(c3)ncn4C3CCCCC3)cn([C@H]3CCCNC3)c12 [Example 76]
2. O=c1[nH]cnc2c(-c3ccc4c(c3)ncn4C3CCCCC3)sc(N3CCNCC3)c12 [Example 28, hydrochloride]
3. O=c1[nH]cnc2c(-c3ccc4c(c3)ncn4C3CCCCC3)sc(N3CC4C(O)C4C3)c12 (stereo not drawn) [Example 17]
4. O=c1[nH]cnc2c(-c3ccc4c(c3)ncn4C3CCCCC3)sc(N3CCC(CO)(CO)C3)c12 [Example 13]
5. O=c1[nH]cnc2c(-c3ccc4c(c3)ncn4C3CCCCC3)cn([C@H]3CC[C@@H](CO)CC3)c12 [Example 74]
6. O=c1[nH]cnn2c(-c3ccc4c(c3)ncn4C3CCCCC3)cc(N3CC[C@H](CO)C3)c12 [Example 63]

## Result
1. 7.17
2. 6.82
3. 6.66
4. 7.36
5. 6.82
6. 6.34

* * *

# System Name: E. feacium DltA (Enterococcus faecium, UniProt Q3XZT7)
# Run Description: in vitro DltA activity assay (luminescence, IC50 determination)
# Format: biochemical
Where a name gives a salt, the structure may show the parent alone.
I'd be grateful if you could share measured IC50 for these entries.
Give bare numbers, in nM.

O=c1[nH]cnc2c(-c3ccc4c(c3)ncn4C3CCCCC3)sc(N3CC4CNCC4(CO)C3)c12 (centres unmarked) [Example 34, hydrochloride] : 61

Next:
## Task Return reported IC50. Input molecule: CN1CC=C(c2sc(-c3ccc4c(c3)ncn4C3CCCCC3)c3nc[nH]c(=O)c23)CC1 [Example 38, hydrochloride]
## Result 130

* * *

# System Name: UniProt Q3XZT7
# Run Description: in vitro DltA activity assay (luminescence, IC50 determination)
# Type: biochemical
# Condition Info: recombinant DltA, 30min preincubation at room temperature, 0.5mM D-Alanine, 0.5-5µM ATP; read-out: E. feacium DltA IC50
Property Label: IC50 (nM)
Answers are plain numbers, in nM.

CN1CC=C(c2cn(-c3ccc4c(c3)ncn4C3CCCCC3)c3nc[nH]c(=O)c23)CC1 [Example 53] : 94

Give IC50 for all compounds that follow.
1. O=c1[nH]cnc2c(-c3ccc4c(c3)ncn4C3CCCOC3)sc(N3CC[C@H](CO)C3)c12 (some centres unmarked) [Example 49]
2. O=c1[nH]cnc2c(-c3ccc4c(c3)ncn4C3CCCCC3)cn(C3CCNC3)c12 (centres unmarked) [Example 77]
3. O=c1[nH]cnc2c(-c3ccc4c(c3)ncn4C3CCCCC3)cn(C3CCCC(O)C3)c12 (racemic) [Example 70A]
4. O=c1[nH]cnc2c(-c3ccc4c(c3)ncn4C3CCCCC3)sc(N3C[C@@H]4[C@@H](CO)[C@@H]4C3)c12 [Example 30]
5. CC(C)N1CCC(n2cc(-c3ccc4c(c3)ncn4C3CCCCC3)c3nc[nH]c(=O)c32)CC1 [Example 82]
6. O=c1[nH]cnc2c(-c3ccc4c(c3)ncn4C3CCCCC3)sc(N3CC[C@H](CO)C3)c12 [Example 7]
7. O=c1[nH]cnc2c1c(C1CCC(CO)C1)cn2-c1ccc2c(c1)ncn2C1CCCCC1 (centres unmarked) [Example 58]

## Result
1: 160; 2: 510; 3: 920; 4: 320; 5: 380; 6: 120; 7: 480
